# Experiment: MTS cytotoxicity assay
# Condition set: African green monkey (Cercopithecus aethiops), Vero E6 cells
Value type: viability at 72 h, 12 μg mL^−1 (%)

[[record]]
smiles_entry = "CCC(CC)COC(=O)[C@H](C)N[P@](=O)(OC[C@H]1O[C@@](C#N)(c2ccc3c(N)ncnn23)[C@H](O)[C@@H]1O)Oc1ccccc1"
observed_result = 98.9


---

# Experiment: MTS cytotoxicity assay
# Condition set: African green monkey (Cercopithecus aethiops), Vero E6 cells
Value type: CC50 at 72 h

[[record]]
smiles_entry = "CCC(CC)COC(=O)[C@H](C)N[P@](=O)(OC[C@H]1O[C@@](C#N)(c2ccc3c(N)ncnn23)[C@H](O)[C@@H]1O)Oc1ccccc1"
value_type = "CC50 at 72 h"
observed_result = "> 120 µg/mL"

